Target: DRV1/GPR32 (Homo sapiens, UniProt O75388)
Sequence (O75388 whole entry): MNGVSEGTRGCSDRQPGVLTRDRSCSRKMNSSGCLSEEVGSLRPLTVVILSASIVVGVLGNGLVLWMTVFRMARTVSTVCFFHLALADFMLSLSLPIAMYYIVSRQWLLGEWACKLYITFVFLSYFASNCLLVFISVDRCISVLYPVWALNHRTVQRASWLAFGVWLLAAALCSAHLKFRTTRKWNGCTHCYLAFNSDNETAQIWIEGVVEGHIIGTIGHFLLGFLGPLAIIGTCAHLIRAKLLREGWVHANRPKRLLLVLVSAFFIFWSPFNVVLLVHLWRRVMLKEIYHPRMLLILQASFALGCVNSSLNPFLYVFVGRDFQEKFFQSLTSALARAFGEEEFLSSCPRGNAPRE
Test: GPR32 cAMP HTRF signaling assay
Type: cell-based
PROPERTY_LABEL: pEC50
Formally, pEC50 is defined as -log10 of the concentration c, with c in mol/L.

Answered examples (3):
molecule="COc1cccc(C(=O)Nc2cccc(-c3nc4ncccn4c3C)c2)c1 [C2B]" property_label=pEC50 observed_measurement=6.72
molecule="COc1ccccc1N1CCN(CCN(C(=O)c2ccc(I)cc2)c2ccccn2)CC1 [pMPPI, reference compound]" property_label=pEC50 observed_measurement=5.60
molecule="COc1cccc(C(=O)Nc2nnc(S(=O)(=O)N3CCOCC3)s2)c1 [C1A]" property_label=pEC50 observed_measurement=6.42

Fill in the blank: the reported pEC50 of O=C(Nc1nnc(S(=O)(=O)N2CCOCC2)s1)c1cccc(Br)c1 [C1B] is ____.
6.49

Request: Cc1c(-c2cccc(NC(=O)c3ccc(F)c(F)c3)c2)nc2ncccn12 [C2A]
7.30

###

Measured EC50 values are reported for all entries that follow.
Molecular target: DRV1/GPR32 (Homo sapiens)
Test: GPR32 PathHunter β-Arrestin Assay
Assay type: cell-based
Expressed in nM, but write only the number.

Answered examples (4):
compound=COc1cccc(C(=O)Nc2nnc(S(=O)(=O)N3CCOCC3)s2)c1 target_entity="DRV1/GPR32 (Homo sapiens)" property_label=EC50 units=nM observed_measurement=930
compound=O=C(Nc1nnc(S(=O)(=O)N2CCOCC2)s1)c1cccc(Br)c1 target_entity="DRV1/GPR32 (Homo sapiens)" property_label=EC50 units=nM observed_measurement=3790
compound="COc1ccccc1N1CCN(CCN(C(=O)c2ccc(F)cc2)c2ccccn2)CC1 [pMPPF, reference compound]" target_entity="DRV1/GPR32 (Homo sapiens)" property_label=EC50 units=nM observed_measurement=1160
compound=COc1cccc(C(=O)Nc2cccc(-c3nc4ncccn4c3C)c2)c1 target_entity="DRV1/GPR32 (Homo sapiens)" property_label=EC50 units=nM observed_measurement=1170

Fill in the blank: the reported EC50 of Cc1c(-c2cccc(NC(=O)c3ccc(F)c(F)c3)c2)nc2ncccn12 is ____.
370
